Source listed as patent US20210301005A1.

Molecular target: T1, human TGFβ3, mature dimeric form (human, UniProt P10600 301-412)
T1 sequence: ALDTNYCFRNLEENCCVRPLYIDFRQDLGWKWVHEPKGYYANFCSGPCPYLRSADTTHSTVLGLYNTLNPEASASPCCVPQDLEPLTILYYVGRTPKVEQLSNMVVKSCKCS
Assay: cell-based or functional assay
quantity-name: HEKBlue TGFβ blocking IC50

Example entries and their recorded answers appear below.
binder | HEKBlue TGFβ blocking IC50
h6F12.v1 (antibody, human IgG1, kappa, N297G, V domains shown) VH: EVTLKESGPVLVKPTETLTLTCTVSGFSLTTYNVHWVRQPPGKALEWMGLIWNTGGTRYNSALKSRLTISKDTSKSQVVLTMTNMDPVDTATYYCARDPVPNKWHFDFWGPGTLVTVSS VL: DIQMTQSPSTLSASVGDRVTITCLASEDIYSNLAWYQQKPGKSPKLLIYDARSLQDGVPSRFSGSESGPEYTLTISSLQPDDFATYFCQQHHAYPFTFGQGTKVEIKR | > 200 nM
h6F12.v1.8 (antibody, human IgG1, kappa, N297G, V domains shown) VH: EVTLKESGPVLVKPTETLTLTCTVSGFSLTTYNVHWVRQPPGKALEWMALIWNTGGTRYNSALKSRLTISKDTSKSQVVLTMTNMDPVDTATYYCARDPVPNKWHFDFWGPGTLVTVSS VL: DIQMTQSPSTLSASVGDRVTITCLASEDIYSNLAWYQQKPGKSPKLLIYDARSLQDGVPSRFSGSESGPEYTLTISSLQPDDFATYFCQQHHAYPFTFGQGTKVEIKR | > 200 nM

Attention now turns to another entry.
Input: Request the reported HEKBlue TGFβ blocking IC50 associated with h6F12.v1.6 (antibody, human IgG1, kappa, N297G, V domains shown) VH: EVTLKESGPVLVKPTETLTLTCTVSGFSLTTYNVHWIRQPPGKALEWMGLIWNTGGTRYNSALKSRLTISKDTSKSQVVLTMTNMDPVDTATYYCARDPVPNKWHFDFWGPGTLVTVSS VL: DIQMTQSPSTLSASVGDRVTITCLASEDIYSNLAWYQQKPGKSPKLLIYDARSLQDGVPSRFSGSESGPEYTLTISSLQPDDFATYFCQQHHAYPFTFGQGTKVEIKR
Output: > 200 nM
